Tested on: PfHDP1 homeodomain (GST-tagged)
Assay: gcPBM binding intensity (ln(normalized median fluorescence intensity)); higher = stronger DNA binding
In all, about 25,000 sequences were measured (“ln(normalized median fluorescence intensity)”: median about 6.7, highest 2% from about 10 on). The sample holds the highest values, similar sequences and a random draw of the others, so the mix is not that of the screen.
Classes (gcPBM binding intensity (ln)): lower band: < 8; central band: ≥ 8 and < 10; upper band: ≥ 10

TATCAAAATAAATGCACACAAATTGCACATATCTAT [CACACA_site1097] | upper band

Below: the item to evaluate.
Inquiry: Using the reported gcPBM binding intensity (ln), which band applies to CATATAAATACATGCACACAAAAATATCAATACATT [CACACA_site2392] ?
Reply text: central band

----------
Tested on: PfHDP1 homeodomain (GST-tagged)
Assay: gcPBM binding intensity (ln(normalized median fluorescence intensity)); higher = stronger DNA binding
In all, about 25,000 sequences were measured (“ln(normalized median fluorescence intensity)”: median about 6.7, highest 2% from about 10 on). For the sample, the highest values were picked, then their nearest neighbours and some sequences at random.
Measured property: gcPBM binding intensity (ln)
Form rule: numeric answer, no unit written next to it.

These solved cases illustrate the format of a correct answer.
TATGAATGCTTTTATGCACACGTACAAAAATATTAT [CACACA_site8851] | 9.99
TGAATGCTTTTATGCACACGTACAAAAATATTATAT [CACACA_site2668] | 10.4
TTCTTTATTATATGCACACGTACATATAATATATAT [CACACA_site2018] | 9.96
AAATTATAAAATAACTGTACCAATCCTTTTTTTTTA [XGTACX_site2229] | 5.84
TATTGCACAAAATAATTTTATTATACTTTATGTTAG [TGCATGCA_negctrl_site574] | 10.8
GTTCATCACATATACACATGCATATTCTAATATGTA [TGCATGCA_site809] | 7.25
AATAGATTTTTATGCGTGCACACATTTAACAAAAAA | 10.3
TAAATTTTAATATGCACACAAAATGTTATATTAAAA [CACACA_site4366] | 9.86
TAATGAAGCTTATGCACACGTTCATTATTTATATTA [CACACA_site3219] | 10.4

Turning to the following sequence.
Inquiry: Please list gcPBM binding intensity (ln) recorded for the sequence `AAACAATATTCTCAAGTGCAAAAAGAAAAAAGAAAT`
Reply text: 9.37

----------
System: PfHDP1 homeodomain (GST-tagged)
Test: gcPBM binding intensity (ln(normalized median fluorescence intensity)); higher = stronger DNA binding
In all, about 25,000 sequences were measured (“ln(normalized median fluorescence intensity)”: median about 6.7, highest 2% from about 10 on). The sample holds the highest values, similar sequences and a random draw of the others, so the mix is not that of the screen.
Entries and their gcPBM binding intensity (ln)
Answer with the value's number alone.

ACATATAAATGATATGTACACACATTTATATATATA [CACACA_site9152] | 7.4
CAAAAGGATATGCACACACACACACGGATATTTATA [CACACA_site7099] | 10.1
CATTATAAAAAATAAAAAAGAAATAATTGTATATGC [CACACA_negctrl_site478] | 6.62
ATATCAAACTAGAATGTGCGCATGCATTCAAGTTTT | 6.54

Inquiry: Read off the recorded gcPBM binding intensity (ln) for GACTCATTAAGGATTATTCCTAATGATCAAAAGAAC [CACACA_negctrl_site515]
Reply text: 6.54

Inquiry: Report gcPBM binding intensity (ln) for AATATATATATGTGTACACATCCAAAATAGGCATAC [CACACA_site5705]
Reply text: 7.59

Inquiry: State, in one line, measured gcPBM binding intensity (ln) of AATATATTGCACCATTGGACCTGAATAATTCTTCCA [CACACA_negctrl_site1071]
Reply text: 11.4

Inquiry: Quickly give me recorded gcPBM binding intensity (ln) for `TGTATGTATAATTGAGTGCACAGAAAAAAAAAAGAA`
Reply text: 10.6

Inquiry: Give reported gcPBM binding intensity (ln) value for CAATTAAATATATGAACACACATGTGAACTTTCTAT [CACACA_site3977]
Reply text: 6.36

Inquiry: Give recorded gcPBM binding intensity (ln). TCACTTTTTATTAAATGTACATGCTTTCATTTTCAT [XGTACX_site8139]
Reply text: 6.78

----------
# gcPBM binding intensity (ln) per record follows
System: PfHDP1 homeodomain (GST-tagged)
Test: gcPBM binding intensity (ln(normalized median fluorescence intensity)); higher = stronger DNA binding
The full ranking holds about 25,000 sequences; the median of “ln(normalized median fluorescence intensity)” is about 6.7, and the highest 2% start at about 10. The full list was thinned out, with the highest values kept by preference.
Quick one: just the number, no unit, thanks!

A selection of reference data follows.
AAAAAAAATTATATATGTACTTATTAATCCTTTTAT [XGTACX_site1387] | 6.11
TTTTTTTTTAAAGAAAATAAAAATATGTACTTGACA [CACACA_negctrl_site1113] | 6.05
AATGTCATGATACATACACACACATACACATACACA [CACACA_site8665] | 6.98
TATAATAATACTTATTGTACTATTAGTTTAATTCAT [XGTACX_site6638] | 6.15
TATATATATTAAAAACGTACAAAATAAGAATTAATT [XGTACX_site5979] | 6.8

Inquiry: Specify gcPBM binding intensity (ln) for TATTGTATTTCATATTGTACTAAAAAAAAAAAAAAG [XGTACX_site6694] and stop.
Reply text: 6.24

Inquiry: Kindly indicate its recorded gcPBM binding intensity (ln). Item: TTTATATTATTATATCTTATTAATTATTTATCATTT [TGCATGCA_negctrl_site73]
Reply text: 6.23

Inquiry: Given ATTTTTTTTTTTTTTTTTTTTGCACCATAAAATAAT [CACACA_negctrl_site1324] , respond with its gcPBM binding intensity (ln).
Reply text: 10.1

Inquiry: Determine its reported gcPBM binding intensity (ln): TGTGCATAATTTTGTGCACACCACGCTAATAATTTT [CACACA_site2915]
Reply text: 11.5

----------
Test system: PfHDP1 homeodomain (GST-tagged)
Experiment: gcPBM binding intensity (ln(normalized median fluorescence intensity)); higher = stronger DNA binding
Over roughly 25,000 sequences, “ln(normalized median fluorescence intensity)” has its median near 6.7; the highest 2% begin near 10. Many of the other results were omitted from the sample, so the highest values are more common in it than they were.
Measured property: gcPBM binding intensity (ln)
Form rule: numeric answer, no unit written next to it.

Examples with answers:
ATACATCAAGGACACACACACACACCCACACCCACA [CACACA_site8013] | 6.71
ATCCTTAATATGAACACACAAATATATTGCACATAT [CACACA_site6230] | 10.9
ATGTAGAAGTAATGCACACATATGTATTTATATATA [CACACA_site5391] | 10.9

Inquiry: For TATACATATGTATGCACACATACATACACATAGAAT [CACACA_site3480] , write its gcPBM binding intensity (ln).
Reply text: 9.51

Inquiry: Supply measured gcPBM binding intensity (ln) of CATATAAAAATATATGCACACAAATAAAAAATTATA [CACACA_site9210] in your reply.
Reply text: 10

Inquiry: Determine from records and report gcPBM binding intensity (ln) for TTTTTCATAAGAAGCACACAAAAAATGATAGAGAAT [CACACA_site1417]
Reply text: 7.39

Inquiry: For `GCCAATAAAGATGTGGTGCATTATATATATATATAT` , write its gcPBM binding intensity (ln).
Reply text: 10.7

Inquiry: Please report the measured gcPBM binding intensity (ln) for AAAAAAAAAAAAAAGAGTACACAGACGTTCAAAGGT [XGTACX_site7566]
Reply text: 6.85

Inquiry: Let me know recorded gcPBM binding intensity (ln) for CATACTCTACATAGATGTACTCATTTAAAAAAAAAA [XGTACX_site6945] , thanks.
Reply text: 6.12

Inquiry: Give me measured gcPBM binding intensity (ln), please, for this sequence: `TAAATATATATATAAGTGCATTATATATATATATAA`
Reply text: 9.53

Inquiry: Note down gcPBM binding intensity (ln) recorded for AATCAAAGTAATTTAACACACAATTTTAATACTGTT [CACACA_site7169]
Reply text: 6.23

Inquiry: Please supply the value of reported gcPBM binding intensity (ln) for the item GTACACATATAATATACACACAACAAATATGCACAT [CACACA_site1010]
Reply text: 10.6

Inquiry: Answer with the recorded gcPBM binding intensity (ln) of TTTTTTTTTTTTTTTGCACACACATTGAATTATTAT [CACACA_site198] only.
Reply text: 9.13

Inquiry: Please report the measured gcPBM binding intensity (ln) for CCATTTGATAATAATGCACACCACATATATTTATAT [CACACA_site9002]
Reply text: 10.1
